- METHOD_NOTES: NCI Yeast Anticancer Drug Screen. Data for the bub3 strain (AID 167)
- CONDITIONS: S. cerevisiae bub3 mutant strain, at 50.0 µM, stronger effect = higher value
About 79,000 compounds went through this panel and 15% of them were active in at least one assay; those are over-represented in the sample as a whole.
ENDPOINT_NAME: growth inhibition (%)
Please reply with the bare figure in % and do not write the unit itself.

Some solved cases for reference:
- Cc1cn(CCCSCC2OC3OC4C(CO)OC(OC5C(CO)OC(OC6C(CO)OC(OC7C(CO)OC(OC8C(CO)OC(OC9C(CO)OC(OC2C(O)C3O)C(O)C9O)C(O)C8O)C(O)C7O)C(O)C6O)C(O)C5O)C(O)C4O)c(=O)[nH]c1=O (stereo unspecified): -1.85
- NC(=O)N/N=C/c1ccccc1O: -1.2
- N/C=N/OCc1ccccc1: -3.75
- NCC1CCCCO1 (stereo unspecified): -16.7
- CC1NC(=O)C(C)C(c2ccccc2)N(N=O)C1c1ccccc1 (stereo unspecified): -25.6

Qu. Entry under review: Cc1csc2nc(-c3ccco3)nn12 . Reported growth inhibition?
Ans. -13.3

Qu. Entry under review: O=S1C2CCC(Br)C1CCC2Br (stereo unspecified) . Reported growth inhibition?
Ans. 5.5
